Recorded values, source paper PMC6268079.

tested on: A549 lung adenocarcinoma epithelial cells; assay: MTT-based cytotoxicity assay, A549; type: cell-based; details: Homo sapiens, A549, 48 h
PROPERTY_MEASURED: IC50

The recorded IC50 for entry O=C(COc1ccc([N+](=O)[O-])c(F)c1)Nc1ccccc1[N+](=O)[O-] equals > 40 µM

====

test system: HepG2 hepatocellular liver carcinoma cells; assay: MTT-based cytotoxicity assay, HepG2; assay type: cell-based; conditions: Homo sapiens; HepG2; MTT, 48 h treatment; means ± SEM of three independent experiments; read-out: IC50
pIC50: −log10 of the molar value.
PROPERTY_MEASURED: pIC50

item_smiles=O=C(COc1ccc([N+](=O)[O-])c(F)c1)Nc1ccc(F)c(Cl)c1 property_measured=pIC50 endpoint_value="< 4.40"
item_smiles=O=C(COc1ccc([N+](=O)[O-])c(F)c1)Nc1cccc(Cl)c1 property_measured=pIC50 endpoint_value="< 4.40"
item_smiles=O=C(COc1ccc([N+](=O)[O-])c(F)c1)Nc1ccc(C(F)(F)F)cc1 property_measured=pIC50 endpoint_value="< 4.40"
item_smiles=O=C(COc1ccc([N+](=O)[O-])c(F)c1)Nc1ccc(Cl)c(C(F)(F)F)c1 property_measured=pIC50 endpoint_value="< 4.40"

Now, please, on to the next compound.
Simply: O=C(COc1ccc([N+](=O)[O-])c(F)c1)Nc1cc(C(F)(F)F)cc(C(F)(F)F)c1 , HepG2 hepatocellular liver carcinoma cells, pIC50 = 4.66
